System: T1, Human VEGFA165 (human, UniProt P15692-4 27-191)
T1 construct: treated as the same molecule; also called antigen VEGFA
T1 sequence (P15692 other isoform, or with tags, fused parts or gaps limits assumed): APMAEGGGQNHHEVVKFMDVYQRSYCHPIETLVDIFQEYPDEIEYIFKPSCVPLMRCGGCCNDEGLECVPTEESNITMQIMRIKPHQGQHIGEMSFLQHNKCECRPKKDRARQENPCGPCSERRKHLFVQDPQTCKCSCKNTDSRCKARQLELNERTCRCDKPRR
Experimental Protocol: phage ELISA, VEGFA coated 0.5 µg/mL, anti-M13(HRP)
Parameter Measured: OD450 (OD450)

| Binder | Parameter Measured | Result Units | Value Reported |
| --- | --- | --- | --- |
| V21 (VHH, Purified with C-terminal GGGGS-6×His) VHH: QLQLVESGGGSVQPGGSLRLSCEVSGRTFTSYTMGWFRQAPGKEREFVVAISKGGYKYNTVSLEARFTISKDNTKNTVYLQMNSLKPEDTAVYYCAGTRAYGSSRLRLAETYEYWGQGTQVTVSS | OD450 | OD450 | 2.15 |
| V13 (VHH, Purified with C-terminal GGGGS-6×His; also called candidate antibody V13) VHH: QLQLVESGGGSVQPGGSLRLSCEVSGRTFTSYTMGWFRQAPGKEREFVVAISKGGYKYDAVSLEARFTISKDNTKNTVYLQMNSLKPEDTAVYYCAGTRAYGSSRLRLADTYEYWGQGTQVTVSS | OD450 | OD450 | 2.14 |
| V14 (VHH, Purified with C-terminal GGGGS-6×His) VHH: QLQLVESGGGSVQPGGSLRLSCEVSGRTFTSYTMGWFRQAPGKEREFVVAISKGGYKYNTVSLEARFTISKDNTKNTVYLQMNSLKPEDTAVYYCAGTRAYGSSRLRLANTYEYWGQGTQVTVSS | OD450 | OD450 | 2.03 |
| V15 (VHH, Purified with C-terminal GGGGS-6×His; also called candidate antibody V15) VHH: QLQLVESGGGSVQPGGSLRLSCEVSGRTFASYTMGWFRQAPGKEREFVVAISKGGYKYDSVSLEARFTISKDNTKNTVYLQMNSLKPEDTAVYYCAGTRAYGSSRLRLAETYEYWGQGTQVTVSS | OD450 | OD450 | 1.87 |
